Entries annotated with measured viscosity
Assay: xn = mol fraction of the nth substance listed
Conditions: 318.15 K; 103 kPa; x1 = 0.45
± gives the uncertainty stated by the source.
parameter: viscosity

>>> print(df.to_string())
                                   compound         result_value
0  C[Si]1(C)O[Si](C)(C)O[Si](C)(C)O[Si](C)(C)O1 + CCCCCCCCCC  0.833 ± 0.041 mPa·s
1  C[Si]1(C)O[Si](C)(C)O[Si](C)(C)O[Si](C)(C)O1 + CCCCCCCCCCCCCC  1.274 ± 0.041 mPa·s
2  C[Si]1(C)O[Si](C)(C)O[Si](C)(C)O[Si](C)(C)O1 + CCCCCCCCCCCCC  1.159 ± 0.041 mPa·s
3  C[Si]1(C)O[Si](C)(C)O[Si](C)(C)O[Si](C)(C)O1 + CCCCCCCCCCCC  1.048 ± 0.041 mPa·s
